The measured values listed here are drawn from patent US7060678B2.

System: HeP-2 (larynx)
Assay: MTT cytotoxicity assay, HeP-2 cells
Assay type: cell-based, human
Details: human, 48 hours, 100 nM
Starred links: 1 amine or outer side, 2 acyl side, 3 side chain; linkers in the order of their positions; H or OH if unused. Non-standard residues stand in square brackets, D forms with d. Residues, ends and D or L forms follow the SMILES beside them. 2Furoyl(5-aminomethyl) = O=C(c1ccc(CN[*:1])o1)[*:2]; X2 = O=C([C@@H]1CC[C@H](CN[*:1])O1)[*:2]
Recorded Percent Cytotoxicity by entry
Numeric only. Scale: %

Known results for compounds:
CSCC[C@H](NC(=O)[C@@H](N)CC(C)C)C(=O)NCc1ccc(C(=O)N[C@@H](Cc2ccc(O)cc2)C(=O)N[C@@H](CC(C)C)C(=O)N[C@@H](CCCCN)C(=O)O)o1 [SEQ ID NO: 18, Leu-Met-Saa1-Tyr-Leu-Lys] (H-LM[2Furoyl(5-aminomethyl)]YLK-OH) ... 35.8
CSCC[C@H](NC(=O)[C@@H](N)CC(C)C)C(=O)N[C@@H](Cc1ccc(O)cc1)C(=O)NC[C@H]1CC[C@@H](C(=O)N[C@@H](Cc2ccc(O)cc2)C(=O)N[C@@H](CC(C)C)C(=O)N[C@@H](CCCCN)C(=O)O)O1 [SEQ ID NO: 13, Leu-Met-Tyr-Saa4-Tyr-Leu-Lys] (H-LMY[X2]YLK-OH) ... 17.9

Kindly review the next compound as well.
# Percent Cytotoxicity lookup, item CSCC[C@H](N)C(=O)NCC1CCC(C(=O)N[C@@H](Cc2ccc(O)cc2)C(=O)N[C@@H](CC(C)C)C(=O)O)O1 (stereo partly drawn) [SEQ ID NO: 16, Met-Saa3-Tyr-Leu]
12.6
